Test system: MOLM14;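 further: after 48 h exposure read by CellTiter-Glo luminescence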
Test: cell viability relative to vehicle control; higher = less cytotoxic
Settings: 10 µM; SRSF2 genotype: SRSF2 wt/wt
Where a name gives a salt, the structure may show the parent alone.
Listing of entries alongside the reported cell viability.
Unit % implied. Number only.

Example cases with answers are listed next.
* CC(=O)Nc1ccc(OC[C@](C)(O)C(=O)Nc2ccc([N+](=O)[O-])c(C(F)(F)F)c2)cc1 [Andarine (GTX-007)] | 105
* C[C@@]12N[C@@H](Cc3ccccc31)c1ccccc12 [(-)-MK 801 maleate] | 112

INPUT: Hello, please tell me recorded cell viability for this one: C[C@@]12C[C@@H](c3ccoc3)OC(=O)[C@@H]1CC[C@]1(C)[C@H]2[C@@H]2C=C[C@@]1(O)C(=O)O2 [Columbin]
OUTPUT: 100

INPUT: Hello, please tell me recorded cell viability for this one: O=C(O)C(=O)CBr [Bromopyruvic acid]
OUTPUT: 94.7

INPUT: Hello, please tell me recorded cell viability for this one: CCC1=C[C@H]2CN3CCc4c([nH]c5ccccc45)[C@](C(=O)OC)(C2)[C@H]13 [Catharanthine]
OUTPUT: 95.5

INPUT: Hello, please tell me recorded cell viability for this one: C[C@]12CC[C@H]3[C@@H](CC[C@@]45O[C@@H]4C(O)=C(C#N)C[C@]35C)[C@@H]1CC[C@@H]2O [Trilostane]
OUTPUT: 102
